# melting point annotations

For orientation, consider the following solved cases.
Data request: Identify the reported melting point for the following entry. CNc1nc(C)c(C(=O)C(C#N)=CN(C)C)s1
Data returned: 245 to 246 °C

Data request: Give a short answer stating reported melting point for COc1cccc(CN2C(=NCCCn3ccnc3)c3cccc4cccc2c34)c1 .
Data returned: 95 to 96 °C

Data request: Quick one: give measured melting point for CC(C)(C)OC(=O)C(C)(C)ON=C(C(=O)O)c1cccs1
Data returned: 201 to 202 °C

Data request: Name the recorded melting point of the compound listed here: COP(=O)(OC)[C@H](C)NC(=O)[C@H](C)NC(=O)CNC(=O)CNC(=O)OCc1ccccc1
Data returned: 124 to 127 °C

Data request: Dear colleague, please send me the reported melting point for Cc1nc(N)c2nc(C)n(CCOCCN)c2c1C when you can.
Data returned: 130 to 133 °C

Further cases:
Data request: Look up and state reported melting point for COc1ccc(CS(=O)(=O)c2cc3ccc(O)cc3oc2=O)cc1
Data returned: 231 to 232 °C

Data request: Consider the compound CCn1c(C)c(C2(c3ccc(OC)cc3OC)OC(=O)c3cc(N(C)C)ccc32)c2ccccc21 (stereo not given) and give its recorded melting point.
Data returned: 215 to 217 °C

---

Consider the following molecules and their measured melting point readings.

Some molecules with known melting point results, for comparison:
Data request: Output measured melting point for this item: Oc1cccc(-c2ccc3cc(O)ccc3c2)c1
Data returned: 192 to 194 °C

Data request: Given the molecule C=CCN1N=C(c2ccc3c(c2)N(S(C)(=O)=O)CCO3)CCC1=O , write its reported melting point.
Data returned: 153 to 155 °C

Data request: State, in one line, measured melting point of COc1c(C)cc2c(c1C)C(C)(C)CN2C(=O)C(C)(C)C
Data returned: 103 to 104 °C

Data request: Using the record for Nc1c(Cl)cc(-c2nn(C3CCN(Cc4ccc(C(F)(F)F)cc4)CC3)c(=O)o2)c2c1OCCO2 , state its measured melting point.
Data returned: 198 °C

We now examine a further molecule.
Data request: Return melting point (reported value) for this molecule: CSc1ccc(C(=O)c2ccc(F)cc2)[nH]1
Data returned: 112 to 113 °C

---

# melting point annotations

# annotated cases, reported melting point shown
Data request: For the compound COc1ccc(-c2sc(N)c(C(=O)c3ccc(Cl)cc3)c2CN(C2CCCCC2)C2CCCCC2)cc1 , give its reported melting point.
Data returned: 178 to 182 °C

Data request: Entry Cc1[nH]c2ccc(CCN(C)C3CCOCC3)cc2c1C(=O)OCc1ccccc1 needs its melting point filled in; supply it.
Data returned: 109 to 111 °C

Data request: Tell us which melting point value is on record for COc1c(N2CCCC2)c(F)cc2c(=O)c(C(=O)O)cn(C3CC3)c12
Data returned: 257 to 258 °C

Data request: Specify measured melting point for CCS(=O)(=O)CC(=O)Nc1c(C)cccc1C .
Data returned: 128 to 130 °C

Data request: # return recorded melting point for input CCCCCCCCCCCCCCc1ccc(OCC(CO)OCc2ccccc2)c(CCCCCC)c1 (centres undefined)
Data returned: 32 to 33 °C

Alright, here's another compound for you.
Data request: Return the recorded melting point value; entry: NP(N)(=O)OCCCCl
Data returned: 111 to 112 °C

---

Quick reference: melting point of the listed items.

# annotated cases, reported melting point shown
Data request: Name the recorded melting point of the compound listed here: CS(=O)(=O)OCc1cc(-c2ccc3c(c2)CCO3)nn(Cc2ccc(Cl)cc2)c1=O
Data returned: 69 to 70 °C

Data request: Provide melting point value for the following compound: O=C(O)c1cc(S(=O)(=O)N2CCCC(OCc3ccccc3)C2)ccc1Cl (stereo not given)
Data returned: 173 to 174 °C

Data request: Write down melting point measured for item Cn1ccnc1N1CCN(CC(=O)c2ccc(NS(C)(=O)=O)cc2)CC1
Data returned: 164 to 165 °C

Data request: Identify melting point associated with the compound Nc1ccc(C=Cc2nc3ccccc3nc2C=Cc2ccc(N)cc2)cc1
Data returned: 227 to 228 °C

Data request: Answer with the recorded melting point for the compound listed here: CC(=O)OC1=CC=C2CC3N4CCC25C1OC1C(=O)CCC3(OC4)C15 (stereo not given)
Data returned: 179 to 182 °C

Turning now to a further compound:
Data request: Give me measured melting point, please, for this compound: COc1ccc(CCn2cnc3ccc(-c4cccc(C(=O)NCCN5CCCC5)c4)nc32)cc1OC
Data returned: 106 to 107 °C

---

quantity: melting point

The cases that follow already have their melting point on record.
Data request: Read off the recorded melting point for COC(=O)c1cccc(/C=C/c2ccccc2)c1
Data returned: 108 to 109 °C

Data request: Give the reported melting point for this compound. CC(C)(C)NCC(O)COc1ccc2c(c1-c1nc(C(F)(F)F)c[nH]1)CCCC2 (stereo not given)
Data returned: 203 to 205 °C

Data request: Item CCOC(=O)CNC(=O)c1nnc2ccc(Cl)nn12 : provide melting point
Data returned: 133 to 134 °C

Data request: In one line, give reported melting point of the entry Nc1nc(N)nc(N2CCC3(CC2)OCCO3)n1 .
Data returned: 209 to 211 °C

Data request: Output melting point of CCOCc1nc2c(N)nc3cc(OCc4csc(-c5cccs5)n4)ccc3c2n1CC(C)(C)O
Data returned: 192 to 194 °C

Data request: Please report the measured melting point for CCOC(=O)C(C)(C)Oc1ccc(CCNC(=O)C=Cc2ccccc2Cl)cc1
Data returned: 76 °C

Data request: Report melting point for c1ccc2c3c([nH]c2c1)C(c1ccc2c(c1)OCCO2)NCC3 (stereo not given)
Data returned: 144 °C

Data request: For the compound O=C1CNC(=O)N1c1ccncc1 , give its reported melting point.
Data returned: 232 to 234 °C

Data request: // Input: Cc1ccc(N2CCCN(c3ccnc4sc(C(N)=O)c(N)c34)CC2)cc1F . Output its melting point only.
Data returned: 79 to 83 °C

Data request: Query melting point for OC(CC1CCN(CC2CC2)CC1)(c1ccccc1)c1ccc(F)cc1 (stereo not given)
Data returned: 115 to 116 °C

Next compound, melting point to be filled in.
Data request: Look up melting point of Cc1nc(NC(=O)c2cnccn2)c(Br)c(C)c1Br and report it.
Data returned: 166 °C

---

quantity: melting point

Data request: Name the recorded melting point of the molecule listed here: C=CCn1nc(-c2ccc(O)cc2O)c2cccc(C(F)(F)F)c21
Data returned: 114 to 115 °C

Further cases:
Data request: Give melting point for the following molecule: CCCCCCCCCCCCCCCCCCOc1cc(N)cc(NC(C)=O)c1
Data returned: 115 to 117 °C

---

quantity: melting point

Data request: Output melting point of CC(=O)c1cccc(-c2ccc(OC3SCC(O)C(O)C3O)cn2)c1 (stereo not given)
Data returned: 159 to 163 °C

Data request: Assign melting point to the following record: COc1ccc(C(=O)OC2CC3C(=O)NC4(C(=O)NS(=O)(=O)C5CC5)CC4C=CCCCCCC(NC(=O)OC(C)(C)C)C(=O)N3C2)cc1 (stereo not given)
Data returned: 151 to 153 °C

Data request: Kindly indicate its recorded melting point. Item: CCCc1cc(=O)[nH]c(NC(=N)Nc2ccccc2)n1
Data returned: 196 °C

Data request: Return value of melting point for input CC(=O)N1CCN(c2ccc(Nc3nccc(-c4sc(-c5ccc(N6CCOCC6)cc5)nc4C)n3)cc2)CC1 , no commentary.
Data returned: 250 to 252 °C

Data request: Indicate its recorded melting point; the compound in question is CCCCc1ccc(-c2ccccc2)c(C(=O)O)c1
Data returned: 74 to 76 °C

---

Quick list: melting point per entry.

A selection of reference data follows.
Data request: Note melting point for the molecule shown: NCCN1CCC(Nc2nc3ccccc3n2Cc2ccccn2)C1 (stereo not given)
Data returned: 130 °C

Data request: Name the recorded melting point of the molecule listed here: COc1cccc(CC(O)C2CCN(CS(N)(=O)=O)CC2)c1OC (stereo not given)
Data returned: 112 to 114 °C

Data request: Provide measured melting point value, entry: CN(C)c1nc2c(c(N3CCN(Cc4ccccc4)CC3)n1)SCCC2
Data returned: 106 to 108 °C

---
Data request: Indicate its recorded melting point; the molecule in question is CCOc1ccccc1-c1cc(NC(=O)C2CCN(CC)CC2)ncn1
Data returned: 65 to 67 °C

Data request: Look up and report measured melting point for this entry: CNC(=O)CN1CCc2cc(Nc3ncc(Cl)c(Nc4cc(Cl)ccc4OC)n3)c(OC)cc2CC1
Data returned: 127 to 136 °C

Data request: Note down melting point recorded for CC(C)N(C)c1cccc([N+](=O)[O-])c1C#N
Data returned: 70 to 72 °C

Data request: // fetch melting point given entry CCNC(=O)c1sc(-n2ccc(OCc3ccccc3)cc2=O)cc1C
Data returned: 158 to 160 °C

Data request: Input CC(=O)c1cn(Cc2ccc(F)cc2)c2ccccc2c1=O , output reported melting point.
Data returned: 185 to 187 °C

Data request: State, in one line, measured melting point of O=C(O)/C(=C/c1ccccc1)CSC(=O)c1ccccc1
Data returned: 160 °C
